# credit: ChEMBL document CHEMBL2073775

Target of assay: ATP-dependent translocase ABCB1 (Homo sapiens, UniProt P08183)
Sequence (P08183 whole entry): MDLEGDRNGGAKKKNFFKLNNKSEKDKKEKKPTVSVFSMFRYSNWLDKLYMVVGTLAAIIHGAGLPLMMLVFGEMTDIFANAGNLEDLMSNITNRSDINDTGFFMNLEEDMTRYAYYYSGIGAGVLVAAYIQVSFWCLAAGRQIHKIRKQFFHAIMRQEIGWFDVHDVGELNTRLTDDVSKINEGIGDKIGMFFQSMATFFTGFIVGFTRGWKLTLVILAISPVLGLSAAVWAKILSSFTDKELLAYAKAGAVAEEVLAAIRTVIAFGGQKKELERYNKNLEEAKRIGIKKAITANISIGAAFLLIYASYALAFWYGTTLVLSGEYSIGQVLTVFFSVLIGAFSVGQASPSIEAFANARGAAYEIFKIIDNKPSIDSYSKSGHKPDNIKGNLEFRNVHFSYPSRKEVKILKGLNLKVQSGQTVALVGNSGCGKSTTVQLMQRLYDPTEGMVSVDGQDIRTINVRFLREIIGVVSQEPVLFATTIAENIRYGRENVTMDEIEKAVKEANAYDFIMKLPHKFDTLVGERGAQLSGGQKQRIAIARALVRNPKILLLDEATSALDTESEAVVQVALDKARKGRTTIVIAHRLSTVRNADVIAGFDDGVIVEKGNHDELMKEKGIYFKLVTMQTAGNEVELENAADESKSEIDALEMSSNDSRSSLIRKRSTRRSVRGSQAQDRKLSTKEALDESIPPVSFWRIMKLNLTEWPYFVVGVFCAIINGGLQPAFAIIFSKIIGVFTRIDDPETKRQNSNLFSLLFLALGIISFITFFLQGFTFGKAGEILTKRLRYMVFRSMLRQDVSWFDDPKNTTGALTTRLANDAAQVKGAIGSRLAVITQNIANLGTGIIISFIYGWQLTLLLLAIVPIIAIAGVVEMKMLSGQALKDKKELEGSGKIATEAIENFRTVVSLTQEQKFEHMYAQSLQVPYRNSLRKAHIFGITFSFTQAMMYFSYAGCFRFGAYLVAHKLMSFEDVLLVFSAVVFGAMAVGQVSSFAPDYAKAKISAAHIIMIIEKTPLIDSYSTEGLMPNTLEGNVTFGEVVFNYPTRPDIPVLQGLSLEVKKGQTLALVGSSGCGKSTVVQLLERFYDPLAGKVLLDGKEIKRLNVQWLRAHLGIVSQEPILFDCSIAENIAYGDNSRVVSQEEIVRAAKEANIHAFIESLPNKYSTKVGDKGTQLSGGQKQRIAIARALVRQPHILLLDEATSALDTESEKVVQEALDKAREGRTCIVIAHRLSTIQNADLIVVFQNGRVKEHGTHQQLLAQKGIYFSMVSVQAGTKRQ
Assay protocol: TP_TRANSPORTER: transepithelial transport in Caco-2 cells
Format: functional, cell-based
Attribute measured: Activity

See these solved cases before continuing.
Task: Identify the measured Activity of CC1(C)CC(=O)N(CCCCN2CCN(c3ncccn3)CC2)C(=O)C1.Cl [GEPIRONE HYDROCHLORIDE] for ATP-dependent translocase ABCB1 (Homo sapiens, UniProt P08183).
Output: substrate [+]

Task: # query: Activity | item CC1(C)CC(=O)N(CCCCN2CCN(c3ncccn3)CC2)C(=O)C1O.Cl (stereo not given) | system: ATP-dependent translocase ABCB1 (Homo sapiens, UniProt P08183)
Output: substrate [+]

Task: Give the reported Activity for CN1CCC(=C(c2ccc(F)cc2)c2cc(Cl)cs2)CC1 (system: ATP-dependent translocase ABCB1 (Homo sapiens, UniProt P08183)).
Output: substrate [+]

Task: Quick check: Activity on ATP-dependent translocase ABCB1 (Homo sapiens, UniProt P08183), item CC(=O)Nc1ccc(O)cc1 ?
Output: is not a substrate [-]

Task: Value wanted: Activity (ATP-dependent translocase ABCB1 (Homo sapiens, UniProt P08183)) of entry NC(=O)N1c2ccccc2C=Cc2ccccc21 [CARBAMAZEPINE]
Output: is not a substrate [-]

Task: Find the measured Activity: item Clc1cccc(Cl)c1N=C1NCCN1 , target or system ATP-dependent translocase ABCB1 (Homo sapiens, UniProt P08183).
Output: substrate [+]

Continuing:
Task: Missing value: Activity, ATP-dependent translocase ABCB1 (Homo sapiens, UniProt P08183), entry C=CCC(N)c1ccccc1-c1noc2ccccc12.Cl (single isomer, unassigned; (-)) . Fill in?
Output: substrate [+]

---

Target of assay: ATP-dependent translocase ABCB1 (Homo sapiens, UniProt P08183)
Assay protocol: TP_TRANSPORTER: transepithelial transport in Caco-2 cells
Type: functional, cell-based
Attribute measured: Activity

Record excerpt, results attached:
Task: Look at this molecule and give its reported Activity. COc1ccc2c(c1)c(CC(=O)O)c(C)n2C(=O)c1ccc(Cl)cc1
Output: is not a substrate [-]

Task: Look up Activity: COc1cc2cc(C3=NNC(=O)CC3C)sc2cc1OC (stereo unspecified)
Output: is not a substrate [-]

Task: Request the reported Activity associated with CS(=O)(=O)O.O=C(CCCN1CCC(=C(c2ccc(F)cc2)c2ccc(F)cc2)CC1)N1CCCC1
Output: substrate [+]

Task: Give the measured Activity of CN1CC2c3ccccc3Oc3ccc(Cl)cc3C2C1.O=C(O)/C=C\C(=O)O (racemic) [ASENAPINE MALEATE] .
Output: substrate [+]

Task: Name the recorded Activity for O=C(O)c1ccccc1O .
Output: is not a substrate [-]

Task: What value of Activity has been reported for the following molecule? O=C(O)/C=C/C(=O)O.O=C1CCCN1CCCCN1CCN(c2cc(C(F)(F)F)ccn2)CC1
Output: substrate [+]

Task: Which measured Activity value corresponds to Cl.FC(F)(F)c1ccc(N2CCNCC2)nc1Cl ?
Output: substrate [+]

Task: Which Activity is listed for CNC(=C[N+](=O)[O-])NCCSCc1ccc(CN(C)C)o1 ?
Output: is not a substrate [-]

Task: Which Activity is reported for this molecule? Cc1cc(=O)n(-c2ccccc2)n1C [ANTIPYRINE]
Output: is not a substrate [-]

Task: Look up Activity for this molecule: CC(=O)Oc1ccccc1C(=O)O
Output: is not a substrate [-]

Please turn your attention to the following entry.
Task: # Activity lookup, item CN(C)CCC=C1c2ccccc2CCc2ccccc21
Output: substrate [+]

---

Target of assay: ATP-dependent translocase ABCB1 (Homo sapiens, UniProt P08183)
Assay protocol: TP_TRANSPORTER: transepithelial transport in Caco-2 cells
Type: functional, cell-based
Attribute measured: Activity

Task: Field: Activity (ATP-dependent translocase ABCB1 (Homo sapiens, UniProt P08183)). Entry: CC(C)Cc1ccc(C(C)C(=O)O)cc1 (stereo not drawn) [IBUPROFEN]
Output: is not a substrate [-]

Task: Notebook entry, ATP-dependent translocase ABCB1 (Homo sapiens, UniProt P08183) assay: Activity of OC[C@@H](O)[C@@H](O)[C@H](O)[C@H](O)CO [MANNITOL] = ?
Output: is not a substrate [-]
